Quick reference for inhibition among some molecules
- targetUnderTest: GNAQ/GNA11 (Homo sapiens) (UniProt P50148+P29992)
- protocolDescription: Inhibition of Galphaq/11 (unknown origin) expressed in CHO cells coexpressing M1 receptor assessed as reduction in carbachol-induced IP1 accumulation at 10 uM preincubated for 1 hr followed by carbachol stimulation and measured after 1 hr by HTRF assay relative to control
- Type: cell-based
- conditionsUsed: time 2.0 hrs

{"columns": ["itemSmiles", "targetUnderTest", "displayUnit", "inhibition"],
 "data": [
  ["NC(=O)CC[C@H](N)C(=O)N1CCn2cc(-c3ccccc3)nc2[C@@H]1CC1CCCCC1", "GNAQ/GNA11 (Homo sapiens) (UniProt P50148+P29992)", "%", 18.5],
  ["N[C@H](CSSC[C@@H](N)C(=O)N1CCn2cc(-c3ccccc3)nc2[C@@H]1CC1CCCCC1)C(=O)N1CCn2cc(-c3ccccc3)nc2[C@@H]1CC1CCCCC1", "GNAQ/GNA11 (Homo sapiens) (UniProt P50148+P29992)", "%", 25.8],
  ["CC[C@@H](C)[C@H](N)C(=O)N1CCn2cc(-c3ccccc3)nc2[C@@H]1C(C)C", "GNAQ/GNA11 (Homo sapiens) (UniProt P50148+P29992)", "%", 1.8],
  ["CC(C)C[C@@H]1c2nc(-c3ccccc3)cn2CCN1C(=O)[C@@H](N)Cc1ccc(O)cc1", "GNAQ/GNA11 (Homo sapiens) (UniProt P50148+P29992)", "%", 3.7],
  ["CN(C)[C@@H](CS)C(=O)N1CCn2cc(-c3ccccc3)nc2[C@@H]1CC1CCCCC1", "GNAQ/GNA11 (Homo sapiens) (UniProt P50148+P29992)", "%", 11.9],
  ["N[C@@H](CS)C(=O)N1CCn2cc(-c3ccccc3)nc2[C@H]1Cc1ccccc1", "GNAQ/GNA11 (Homo sapiens) (UniProt P50148+P29992)", "%", 19.5],
  ["CN[C@@H](CS)C(=O)N1CCn2cc(-c3ccccc3)nc2[C@H]1CC(C)C", "GNAQ/GNA11 (Homo sapiens) (UniProt P50148+P29992)", "%", 13.2],
  ["C[C@H]1c2nc(-c3ccccc3)cn2CCN1C(=O)[C@@H](N)CS", "GNAQ/GNA11 (Homo sapiens) (UniProt P50148+P29992)", "%", 24.4],
  ["CC(C)C(=O)N1CCn2cc(-c3ccccc3)nc2[C@@H]1CC1CCCCC1", "GNAQ/GNA11 (Homo sapiens) (UniProt P50148+P29992)", "%", 44.2],
  ["CC(C)C[C@@H]1c2nc(-c3ccccc3)cn2CCN1C(=O)[C@@H](N)CCCCN", "GNAQ/GNA11 (Homo sapiens) (UniProt P50148+P29992)", "%", 1.3]
]}

----------
- protocolDescription: Antiproliferative activity against human MP41 cells assessed as inhibition of cell growth after 72 hrs by CCK8 assay
- Format: functional, cell-based
- conditionsUsed: MP41, 72 h
Quick reference for IC50 among some compounds
propertyName: IC50 (µM)

{"columns": ["itemSmiles", "signQualifier", "measuredNumber"],
 "data": [
  ["CN(C)[C@@H](CS)C(=O)N1CCn2cc(-c3ccccc3)nc2[C@@H]1CC1CCCCC1", ">", 100],
  ["N[C@@H](CO)C(=O)N1CCn2cc(-c3ccccc3)nc2[C@@H]1CC1CCCCC1", ">", 100],
  ["O=C([C@@H]1CCCN1)N1CCn2cc(-c3ccccc3)nc2[C@@H]1CC1CCCCC1", "=", 63.4],
  ["CC(C)[C@H](N)C(=O)N1CCn2cc(-c3ccccc3)nc2[C@@H]1CC1CCCCC1", "=", 83],
  ["CC(C)[C@@H]1c2nc(-c3ccccc3)cn2CCN1C(=O)[C@@H](N)Cc1ccc(O)cc1", "=", 97.6]
]}
